CCID50 values, listed per item
# Test system: Vero
# assay overview: Inhibitory dose required to reduce the growth of vero cells by 50% over a 4 day period.
# Assay type: functional, Chlorocebus sabaeus

{"columns": ["compound", "experimental system", "assay endpoint", "test result"],
 "data": [
  ["CC(O)c1cn(C2CC(O)C(CO)S2)c(=O)[nH]c1=O (stereo not given)", "Vero", "CCID50", ">500 µM"]
]}

Quick one: CCID50 for O=c1[nH]c(=O)n([C@@H]2CC(O)C(CO)S2)cc1C(F)(F)F (stereo not given in full) ?
>500 µM

For O=c1[nH]c(=O)n([C@H]2CC(O)C(CO)S2)cc1/C=C/Cl (stereo not given in full) , what is its reported CCID50?
>500 µM

Record request: CCID50 value, item C/C=C/c1cn([C@H]2CC(O)C(CO)S2)c(=O)[nH]c1=O (stereo not given in full)
>100 µM

For the compound shown here, O=c1[nH]c(=O)n([C@H]2CC(O)C(CO)S2)cc1I (stereo not given in full) , give the reported CCID50.
>100 µM

====

# Test system: Vero
# assay overview: Inhibitory dose required to reduce the growth of vero cells by 50% over a 4 day period.
# Type: functional, Chlorocebus sabaeus
Threshold rule: CCID50 greater than or equal to 400 µM is met; below that, not met.

Sample answers from the record:
{"columns": ["compound", "experimental system", "label"],
 "data": [
  ["COC(C)c1cn(C2CC(O)C(CO)S2)c(=O)[nH]c1=O (stereo unspecified)", "Vero", "met"],
  ["O=c1[nH]c(=O)n([C@H]2CC(O)C(CO)S2)cc1C(F)(F)F (stereo partly specified)", "Vero", "not met"],
  ["O=c1[nH]c(=O)n(C2CC(O)C(CO)S2)cc1F (stereo unspecified)", "Vero", "not met"],
  ["C#Cc1cn([C@H]2CC(O)C(CO)S2)c(=O)[nH]c1=O (stereo partly specified)", "Vero", "not met"]
]}

Can CSCc1cn(C2CC(O)C(CO)S2)c(=O)[nH]c1=O (stereo unspecified) be said to have CCID50 at or above 400 µM?
met

State whether the measured CCID50 reaches 400 µM, counting equality as reaching it, for C=Cc1cn([C@H]2CC(O)C(CO)S2)c(=O)[nH]c1=O (stereo partly specified)
met

Quick check: does CC(C)(C)c1cn([C@H]2CC(O)C(CO)S2)c(=O)[nH]c1=O (stereo partly specified) have CCID50 greater than or equal to 400 µM?
met

Identify whether the reported CCID50 of the following compound is 400 µM or greater: CC(=O)c1cn(C2CC(O)C(CO)S2)c(=O)[nH]c1=O (stereo unspecified)
not met

Identify whether the reported CCID50 of the following compound is 400 µM or greater: `Nc1nc2c(ncn2COCCO)c(=O)[nH]1`
met

Reported CCID50 reaches at least 400 µM for O=c1[nH]c(=O)n([C@H]2CC(O)C(CO)S2)cc1[N+](=O)[O-] (stereo partly specified) ?
met

====

# Test system: Human alphaherpesvirus 3
# assay overview: Inhibitory activity against varicella zoster virus (VZV) strain G31 in MRC-5 cells.
# Format: functional, organism-based
# experimental conditions: Human alphaherpesvirus 3, MRC5
pIC50: −log10 of the molar value.
assay endpoint: pIC50

{"columns": ["molecule", "pIC50"],
 "data": [
  ["COc1cn(C2CC(O)C(CO)S2)c(=O)[nH]c1=O (stereo unspecified)", "< 4.00"],
  ["C=Cc1cn([C@H]2CC(O)C(CO)S2)c(=O)[nH]c1=O (stereo partly specified)", 5.96],
  ["O=c1[nH]c(=O)n(C2CC(O)C(CO)S2)cc1F (stereo unspecified)", "< 4.00"],
  ["C=C(C)c1cn([C@H]2CC(O)C(CO)S2)c(=O)[nH]c1=O (stereo partly specified)", "> 4.40"],
  ["CC(C)c1cn([C@H]2CC(O)C(CO)S2)c(=O)[nH]c1=O (stereo partly specified)", 5.39],
  ["O=c1[nH]c(=O)n([C@H]2CC(O)C(CO)S2)cc1C(F)=C(Cl)Cl (stereo partly specified)", "< 4.00"],
  ["CCc1cn([C@H]2CC(O)C(CO)S2)c(=O)[nH]c1=O (stereo partly specified)", 6.00],
  ["CC(O)c1cn(C2CC(O)C(CO)S2)c(=O)[nH]c1=O (stereo unspecified)", 4.92]
]}

What pIC50 appears in the records for this molecule with Human alphaherpesvirus 3? O=c1[nH]c(=O)n([C@H]2CC(O)C(CO)S2)cc1CC(F)(F)F (stereo partly specified)
< 4.40

Find pIC50 (Human alphaherpesvirus 3) for the entry O=c1[nH]c(=O)n([C@H]2CC(O)C(CO)S2)cc1Br (stereo partly specified)
< 4.40

Record lookup: for Human alphaherpesvirus 3, what pIC50 belongs to COC(C)c1cn(C2CC(O)C(CO)S2)c(=O)[nH]c1=O (stereo unspecified) ?
< 4.40

Fill in the recorded pIC50 for this molecule, with Human alphaherpesvirus 3 as test system: O=c1[nH]c(=O)n([C@H]2C[C@H](O)[C@@H](CO)O2)cc1/C=C/Br [BRIVUDINE]
> 6.00
